- Target System: Feline_OSMR_hlgG1_Fc (feline)
- Sequence (chain, as listed by the source limits assumed, form in doubt): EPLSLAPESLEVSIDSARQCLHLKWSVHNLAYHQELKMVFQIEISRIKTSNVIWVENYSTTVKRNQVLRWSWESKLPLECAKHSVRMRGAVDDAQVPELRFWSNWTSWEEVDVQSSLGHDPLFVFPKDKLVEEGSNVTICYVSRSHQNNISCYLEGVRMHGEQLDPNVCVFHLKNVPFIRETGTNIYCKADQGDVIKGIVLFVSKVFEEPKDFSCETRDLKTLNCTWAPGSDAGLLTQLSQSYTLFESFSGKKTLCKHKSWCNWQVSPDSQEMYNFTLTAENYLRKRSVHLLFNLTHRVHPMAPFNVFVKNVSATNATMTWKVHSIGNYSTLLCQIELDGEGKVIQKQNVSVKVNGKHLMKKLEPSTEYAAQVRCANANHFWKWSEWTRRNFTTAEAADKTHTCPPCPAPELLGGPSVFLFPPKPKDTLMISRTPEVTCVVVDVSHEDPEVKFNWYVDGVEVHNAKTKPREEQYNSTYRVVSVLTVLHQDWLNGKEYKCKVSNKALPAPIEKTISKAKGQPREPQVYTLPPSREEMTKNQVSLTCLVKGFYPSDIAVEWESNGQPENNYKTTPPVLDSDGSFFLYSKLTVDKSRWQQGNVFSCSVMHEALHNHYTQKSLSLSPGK
- Protocol: SPR Biacore
Reported pKd values are given for each entry in this list.
Just so you know, pKd here is -log10 of the concentration in molar units; reply with that number alone.

Field: example entries. Status: answers known.
Mu_02D09_VH (SEQ ID NO: 31)_R104A (antibody, V domains shown) VH: EVQLVESGGGLVKPGGSLTLSCAASGFTFSDYGMHWLRQAPEKGLEWVAYISSGSRAVFFADTVKGRFTISRDNAKNTLFLQMTSLRSDDTAMYYCARDRYDGAGFAYWGQGTLVTVSA VL: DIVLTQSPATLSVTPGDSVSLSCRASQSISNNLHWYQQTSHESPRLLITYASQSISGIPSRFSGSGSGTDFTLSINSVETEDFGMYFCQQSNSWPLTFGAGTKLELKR; 9.35
Mu_09E09_VH (SEQ ID NO: 35)_Y57A (antibody, V domains shown) VH: DVKLVESGEGLVKPGGSLKLSCAASGFTFSSYAMSWVRQTPEKRLEWVAYISSGGDAIYYADTVKGRFTISRDNARNTLYLQMSSLKSEDTAMYYCTRDPITGTFAYWGQGTLVTVSA VL: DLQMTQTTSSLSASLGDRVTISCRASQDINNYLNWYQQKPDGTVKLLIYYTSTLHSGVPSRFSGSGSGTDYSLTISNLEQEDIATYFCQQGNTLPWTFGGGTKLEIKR; 8.60

Lab note: next binder to report on.
**Q:** # get_value(readout='pKd', item= Mu_02D09_VH (SEQ ID NO: 31)_D99A (antibody, V domains shown) VH: EVQLVESGGGLVKPGGSLTLSCAASGFTFSDYGMHWLRQAPEKGLEWVAYISSGSRAVFFADTVKGRFTISRDNAKNTLFLQMTSLRSDDTAMYYCARARYDGRGFAYWGQGTLVTVSA VL: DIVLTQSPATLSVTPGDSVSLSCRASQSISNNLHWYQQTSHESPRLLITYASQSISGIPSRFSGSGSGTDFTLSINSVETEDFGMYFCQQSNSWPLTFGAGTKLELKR )
**A:** 8.95
